test system: RAW-Dual (murine macrophage reporter line); assay: NF-kB reporter (SEAP) activity fold change vs agonist alone; higher = enhanced NF-kB activity; details: modulator concentration 10 µM; agonist: MPLA […]
parameter: NF-kB reporter
Enter a number only.

CCOc1ccc(S(=O)(=O)N2C3CCC2CC(S(=O)(=O)c2ccccc2)C3)cc1 (stereo unspecified) | 0.968
CC(COc1ccccc1)N(CCCl)Cc1ccccc1.Cl (stereo unspecified) | 0.355
CCCc1nc(C(C)(C)O)c(C(=O)OCc2oc(=O)oc2C)n1Cc1ccc(-c2ccccc2-c2nnn[nH]2)cc1 | 1

So what's the measured NF-kB reporter for this one? `CC(=O)N(C=Cc1cc[n+](CCCS(=O)(=O)[O-])c2ccccc12)c1ccccc1` 0.908

Give the measured NF-kB reporter of `COc1ccc(CN(CCN(C)C)c2ccccn2)cc1.O=C(O)C=CC(=O)O` . 1.01

Which measured NF-kB reporter value corresponds to `CCS(=O)(=O)N1CCC(Oc2cc(C)nc(C)n2)CC1` ? 0.963

Please look up its NF-kB reporter: `O=C(NCc1ccco1)C(=Cc1ccc(-c2ccccc2Cl)o1)NC(=O)c1ccccc1` 0.791

Any idea what its NF-kB reporter is? The compound is `CCS(=O)(=O)N1CCC2(CC1)NC(=O)N(CCOc1ccccc1)C2=O` 1.09

Name the recorded NF-kB reporter for `O=C1C(Cl)=C(N2CCCCC2)C(=O)N1c1cc(Cl)c(Cl)cc1Cl` . 0.857

Report NF-kB reporter for `Cc1c(C(=O)OC(C)C)sc(NC(=O)C(C)(C)C)c1C(=O)OC(C)C` please. 1.09

NF-kB reporter for `N=C(N)Nc1nc(-c2ccccc2)c(-c2ccccc2)s1` ? 1.29

###

system: RAW-Dual (murine macrophage reporter line); experiment: IRF reporter (Lucia luciferase) activity fold change vs agonist alone; higher = enhanced IRF activity; details: modulator concentration 10 µM; agonist: 3'3'-cGAMP 10 ug/mL
Listed compounds paired with reported IRF reporter
In your answer, state the number alone without any accompanying words.

Known IRF reporter results, listed for orientation:
Cn1cc(-c2cc(CNC(=O)c3cncc(F)c3)ccn2)cn1 | 0.966
O=C(Nc1ccccc1)NC1CCS(=O)(=O)C1 (stereo unspecified) | 0.97
C=C1CCC2C(C)(CO)C(O)CCC2(C)C1CC=C1C(=O)OCC1O (stereo unspecified) | 0.188
COc1ccccc1OCC(O)CN1CCN(CC(=O)Nc2c(C)cccc2C)CC1.Cl.Cl (stereo unspecified) | 0.908
Cl.Fc1ccc(C2CCNCC2COc2ccc3c(c2)OCO3)cc1 (stereo unspecified) | 0.916
COc1ccc(C2N3CC4(C)CN2CC(C)(C3)C4=O)cc1 (stereo unspecified) | 1.03
CC(=O)Nc1ccc(NC(=S)NC(=O)C=Cc2ccc(Cl)cc2Cl)cc1 | 0.428
O=c1cc(-c2ccc(O)cc2)oc2cc(OC3OC(CO)C(O)C(O)C3O)cc(O)c12 (stereo unspecified) | 0.911

Value lookup for IRF reporter; key = `CC(C)Cn1c(=O)n(C)c(=O)c2[nH]cnc21` 0.849

So what does the record say about IRF reporter for `O=S1(=O)N=C(Oc2ccc3ccccc3c2)c2ccccc21` ? 0.91

# IRF reporter lookup, item `CCn1cc(C(=O)O)c(=O)c2cc(F)c(N3CCN(C)CC3)cc21.CS(=O)(=O)O` 0.858

###

test system: RAW-Dual (murine macrophage reporter line); experiment: IRF reporter (Lucia luciferase) activity fold change vs agonist alone; higher = enhanced IRF activity; settings: modulator concentration 10 µM; agonist: LPS 0.1 ug/mL
parameter: IRF reporter
# print the numeric value only

A selection of reference data follows.
CCOC(=O)Nc1ccc(NCc2ccc(F)cc2)nc1N.O=C(O)/C=C/C(=O)O | 1.3
CCCCCCc1cc2cc(-c3nc(-c4ccc(Oc5ccccc5)cc4)cs3)c(=O)oc2cc1O | 1.42
CCC1(CC)Cc2ccccc2C(CC(=O)N2CCOCC2)=N1.O=S(=O)(O)O | 0.964
Cc1ccc(Nc2nc(Cl)nc(Nc3ccc(C(C)C)cc3)n2)cc1 | 1.1
CC(NCCc1c[nH]c2ccccc12)=C1C(=O)c2ccccc2C1=O | 0.989

Continue with the molecule presented below.
// lookup IRF reporter for `O=C(O)C=Cc1ccc2c(c1)OCCO2` 1.35

###

test system: RAW-Dual (murine macrophage reporter line); test: IRF reporter (Lucia luciferase) activity fold change vs agonist alone; higher = enhanced IRF activity; conditions: modulator concentration 10 µM; agonist: 3'3'-cGAMP 10 ug/mL
parameter: IRF reporter
Form field (numeric): enter value without unit.

COC(=O)C1=CN(CC2CCCO2)C=C(C(=O)OC)C1c1cccc(Cl)c1 (stereo not given) | 0.82
CC(C)N1CCN(c2ccc(OC[C@H]3CO[C@](Cn4cncn4)(c4ccc(Cl)cc4Cl)O3)cc2)CC1 | 0.832
O=c1oc2c(O)c(O)cc3c(=O)oc4c(O)c(O)cc1c4c23 | 0.85

Which IRF reporter reading was recorded for the molecule `CS(=O)(=O)N(CC(=O)NCCSCc1cccc(Cl)c1)c1cccc(Cl)c1` ? 1.02

Any idea what IRF reporter was measured for `O=S1(=O)N=C(SCc2ccccc2)Nc2ccc(Cl)cc21` ? 0.718

###

tested on: RAW-Dual (murine macrophage reporter line); assay: NF-kB reporter (SEAP) activity fold change vs agonist alone; higher = enhanced NF-kB activity; conditions: modulator concentration 10 µM; agonist: CpG ODN 1826 0.5 ug/mL
parameter: NF-kB reporter
Lab note: jot down the number only; don't add units.

COc1c(OC)c2occc2c2oc(=O)ccc12 | 1.14
O=C(CSc1nc(-c2ccccc2)c(-c2ccccc2)o1)N1CCOCC1 | 1.03
O=C(C1=C(O)C(=O)N(c2nccs2)C1c1ccccc1)c1cc2ccccc2o1 (stereo not drawn) | 0.928
Cc1nnc(C)n1N=Cc1ccc(Cl)c([N+](=O)[O-])c1 | 0.797
Cc1ccc(Nc2nccc(N(C)c3ccc4c(C)n(C)nc4c3)n2)cc1S(N)(=O)=O | 0.71
COC(=O)C1=C(C)NC(=O)CC1c1c(F)cccc1Cl (stereo not drawn) | 0.986
O=C(Nc1ccccn1)c1ccc(OCC2CCCO2)nc1 (stereo not drawn) | 1.12
N#CC[C@H](C1CCCC1)n1cc(-c2ncnc3[nH]ccc23)cn1 | 1.4

For the compound shown here, Cc1cc(=O)n2c(-c3cccc(NC(=O)C4CCCO4)c3)csc2n1 (stereo not drawn) , give the reported NF-kB reporter. 1.25

Any idea what NF-kB reporter was measured for COc1ccc(S(=O)(=O)N2CCC(c3ccccc3)S(=O)(=O)CC2)cc1Cl (stereo not drawn) ? 0.831

Fill in: NF-kB reporter of `O=C(CCCCCN1C(=O)c2cccc3cccc(c23)C1=O)NCCO` is ___ 0.954

Entry under review: `O=C(Nc1ccc(NS(=O)(=O)c2ccc(Cl)cc2)cc1)c1ccccc1` . Reported NF-kB reporter? 1

Could you tell me which NF-kB reporter is on file for CC[C@@]1(O)C(=O)OCc2c1cc1n(c2=O)Cc2cc3c(CN(C)C)c(O)ccc3nc2-1 [Prestw-1196] ? 2.33

Please report the recorded NF-kB reporter for `CCCc1cc(=O)oc2cc(OCC(=O)OC)c(Cl)cc12` . 1.1

Need NF-kB reporter, item `COC(=O)C1=C(C)NC(C)=C(C(=O)OC)C1c1c(F)cccc1Cl` 0.828

State the recorded NF-kB reporter for this entry: Cc1nc(-c2ccc(S(=O)(=O)NC3CCc4nc(N(C)C)ncc4C3)cc2)co1 (stereo not drawn) 0.877

Query: NF-kB reporter; subject: `C[C@H]1[C@@H](OC(=O)CCC(=O)O)O[C@@H]2O[C@]3(C)CC[C@H]4[C@H](C)CC[C@@H]1[C@@]24OO3` 1.02

Entry CC1(C)CC(=O)C2=C(C1)OC(N)=C(C#N)C2c1ccccc1C(F)(F)F (stereo not drawn) has what NF-kB reporter? 1.01

Item `CCc1ccc(NC(=O)CSc2nc3c([nH]c4ccccc43)c(=O)n2C)cc1` has what recorded NF-kB reporter? 0.809

Record request: NF-kB reporter value, item CC1=C(C(=O)OC2CCCCC2)C(c2ccc(N(C)C)cc2)C2=C(CC(C)(C)CC2=O)N1 (stereo not drawn) 0.767

###

tested on: RAW-Dual (murine macrophage reporter line); assay: IRF reporter (Lucia luciferase) activity fold change vs agonist alone; higher = enhanced IRF activity; conditions: modulator concentration 10 µM; agonist: MPLA […]
Kindly return yes (1) if reported IRF reporter is no lower than 1; return no (0) if it is lower.

CCC(=O)N1CCCC1c1nc2ccccc2n1CCOc1ccc(Cl)cc1 (stereo unspecified) | yes (1)

From here, focus on the item given below.
In plain terms: is recorded IRF reporter at least 1 for CC(Oc1ccc(Cl)cc1)C(=O)NCc1cccnc1 (stereo unspecified) ? yes (1)

###

system: RAW-Dual (murine macrophage reporter line); test: IRF reporter (Lucia luciferase) activity fold change vs agonist alone; higher = enhanced IRF activity; conditions: modulator concentration 10 µM; agonist: MPLA […]
parameter: IRF reporter
Write the number on its own, no unit after it.

Param item = CCC1OC(=O)C(C)C(OC2CC(C)(OC)C(O)C(C)O2)C(C)C(OC2OC(C)CC(N(C)C)C2O)C(C)(O)CC(C)CN(C)C(C)C(O)C1(C)O (configuration not stated) ; retrieve measured IRF reporter. 0.952

Item under review: `NC(=NOC(=O)c1ccc2nsnc2c1)c1ncon1` . Reported IRF reporter? 1.18

GET /values?readout=IRF reporter&item= `Cc1c(C(=O)Nc2cccc3ccccc23)cccc1[N+](=O)[O-]` 1.41

So what's the measured IRF reporter for this one? `O=C1C(O)=C(c2ccc([N+](=O)[O-])cc2)C(=O)c2ccccc21` 1.28

Bench note: what IRF reporter did CCOC(=O)c1c(N2C(=O)C3C4C=CC(O4)C3C2=O)sc2c1CCCC2 (configuration not stated) show? 0.967
